B1: library; a variant is named by its letters at X, in order (parent)
chain: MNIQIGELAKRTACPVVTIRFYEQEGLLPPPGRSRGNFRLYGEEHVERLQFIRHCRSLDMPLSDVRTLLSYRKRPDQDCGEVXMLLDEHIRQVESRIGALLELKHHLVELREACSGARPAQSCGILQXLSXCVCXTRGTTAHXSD

- Variants of: B1
- protocol_details: sfGFP reporter fluorescence (15 h) (µM FITC); higher = stronger transcriptional activation
- condition_label: library round: Round 2; ligand: 1 µM Pb
assay_endpoint: sfGFP reporter fluorescence
Give the figure only, with no unit attached.

> print(dat)
                   variant.spec               assay.endpoint  value.measured
 1            NGDDR T136A T140A  sfGFP reporter fluorescence          0.0665
 2                  NGDAR E112I  sfGFP reporter fluorescence           0.054
 3                  NIEDP C134E  sfGFP reporter fluorescence           0.316
 4            IGDDR K104V H106A  sfGFP reporter fluorescence           0.136
 5                        NGSPA  sfGFP reporter fluorescence           0.114
 6             NGDDM I90L I125L  sfGFP reporter fluorescence          0.0526
 7                        TGAAP  sfGFP reporter fluorescence          0.0747
 8            NGDPP G124S I125L  sfGFP reporter fluorescence          0.0455
 9  NIDDP M60L P61N K104V L107C  sfGFP reporter fluorescence            1.19
10                  NMDAP L107C  sfGFP reporter fluorescence            3.21

Memo: SGDDP L85Y K104V , reported sfGFP reporter fluorescence: 0.0671

Memo: NGDDP P61N D64K V108M , reported sfGFP reporter fluorescence: 0.461

Memo: NMDDP L85I K104V , reported sfGFP reporter fluorescence: 0.417

Memo: TGDDP I97A K104G , reported sfGFP reporter fluorescence: 0.155

Memo: TGCDA , reported sfGFP reporter fluorescence: 0.0758

Memo: TGDDP R111D E112H , reported sfGFP reporter fluorescence: 0.0446

Memo: SGDDP I90L V108N , reported sfGFP reporter fluorescence: 0.0461

Memo: NSAAP , reported sfGFP reporter fluorescence: 0.162

Memo: NGCAY , reported sfGFP reporter fluorescence: 0.0635
